Provenance of the data: patent US20130109734A1

Target: human GPR120 (Homo sapiens, UniProt Q5NUL3)
Construct: host or cells: HEK293 cells co-expressing Gqi5
Assay: Intracellular Ca2+ assay in human GPR120 stable cell line (HEK293 co-expressing Gqi5), Flexstation
Type: cell-based
Details: % activity at 5 μM compared to the maximal activity of GW9508 at 6.7 μM (=100%); human GPR120 cells, Ca2+ fluorescence
measurement_kind: % Activity (GW9508 Reference Compound) (%)

CC(Cc1ccc(OCc2cc(Cl)cc3c2OC(C)(C)C3O)cc1)C(=O)O (centres unmarked) :: 103.85
CC(Cc1ccc(OCc2cc(F)cc3c2OC(C)(C)C3)cc1)C(=O)NO (centres unmarked) :: 110.24
CC1(C)Cc2cc(F)cc(COc3ccc(CCC(=O)O)c4c3CCCC4)c2O1 :: 114.48
CC1(C)Cc2cc(F)cc(COc3ccc(C4CC4C(=O)O)cc3)c2O1 (single isomer, unassigned) [Example 131A] :: 103.75
CC(Cc1ccc(OCc2cc(Cl)cc3c2OC(C)(C)C3)cc1)C(=O)O (centres unmarked) :: 119.0442

###

Target: human GPR120 (Homo sapiens)
Construct: host or cells: HEK293 cells co-expressing Gqi5
Sequence (Q5NUL3 1-361): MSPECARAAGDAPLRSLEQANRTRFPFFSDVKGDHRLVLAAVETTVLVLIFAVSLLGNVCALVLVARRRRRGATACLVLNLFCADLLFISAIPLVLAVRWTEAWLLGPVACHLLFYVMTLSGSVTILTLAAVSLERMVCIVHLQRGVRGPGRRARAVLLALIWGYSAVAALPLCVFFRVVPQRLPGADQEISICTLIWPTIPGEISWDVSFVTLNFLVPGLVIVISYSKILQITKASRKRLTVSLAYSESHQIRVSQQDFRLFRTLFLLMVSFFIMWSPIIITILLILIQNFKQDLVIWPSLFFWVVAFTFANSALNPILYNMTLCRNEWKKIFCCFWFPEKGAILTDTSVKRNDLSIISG
Assay: Intracellular Ca2+ assay in human GPR120 stable cell line (HEK293 co-expressing Gqi5), Flexstation
Assay type: cell-based
Conditions: % activity at 5 μM compared to the maximal activity of GW9508 at 6.7 μM (=100%); human GPR120 cells, Ca2+ fluorescence
Procedure: Human GPR120 stable cell line was purchased from Multispan Inc (26219 Eden Landing Road, Hayward, Calif. 94545). This GPR120 cell line was generated in HEK293 cells co-expressing Gqi5. […] The concentration of intracellular Ca^2+ was measured as described below. […] Compounds were dissolved in 100% DMSO and diluted to desired concentrations with assay buffer and placed in the Flexstation simultaneously with the cell plate for 20 minute incubation at 37° C. prior to reading. […]
measurement_kind: % Activity (GW9508 Reference Compound) (%)

Illustrative cases are given below, each with its answer.
CC1(C)Cc2cc(F)cc(COc3ccc(CCC(=O)O)c4c3CCC4)c2O1 :: 95.03
CC(Cc1cc(F)c(OCc2ccc(C(F)(F)F)c3c2OC(C)(C)C3)c(F)c1)C(=O)O (stereo not drawn) :: 143.1
COc1cc(CCC(=O)O)ccc1OCc1cc(F)cc2c1OC(C)(C)C2 :: 159.06
COc1cc(CC(C)C(=O)O)ccc1OCc1cc(Cl)cc2c1OC(C)(C)C2 (stereo not drawn) :: 109.2
CC(Cc1ccc(OCc2cc(Cl)cc3c2OC2(CCCC2)C3)cc1)C(=O)O (stereo not drawn) :: 164.79
COc1cc(OCc2cc(Cl)cc3c2OC2(CCCC2)C3)ccc1CCC(=O)O :: 148.21
CC(Cc1cc(F)c(OCc2cccc3c2OCC3)c(F)c1)C(=O)O (stereo not drawn) :: 123.7995

a = CC1(C)Cc2c(C(F)(F)F)ccc(COc3c(F)cc(C4CC4C(=O)O)cc3F)c2O1 (stereo not drawn)
b = CC(CC(=O)O)Cc1ccc(OCc2cc(F)cc3c2OC(C)(C)C3)cc1 (stereo not drawn)
-- ask API: POST /compare with a and b ; response names the item with higher % Activity (GW9508 Reference Compound). Field: selected label. Fill in the label of the entry you choose.
-- reply a
(a: 149.5%, b: 98.43%)
